assay: Inhibition of collagenase type 4 after 30 mins by fluorescence plate reader
TEST READOUT: IC50 (µM)

I. Oc1cc(O)c2c(c1)O[C@H](c1ccc(O)c(O)c1)[C@H](O)[C@H]2c1c(O)cc(O)c2c1O[C@H](c1ccc(O)c(O)c1)[C@H](O)[C@H]2c1c(O)cc(O)c2c1O[C@H](c1ccc(O)c(O)c1)[C@H](O)C2 [PROCYANIDIN C1]
II. Oc1cc(O)c2c(c1)O[C@H](c1ccc(O)c(O)c1)[C@H](O)[C@H]2c1c(O)cc(O)c2c1O[C@H](c1ccc(O)c(O)c1)[C@H](O)[C@H]2c1c(O)cc2c(c1O)C[C@@H](O)[C@@H](c1ccc(O)c(O)c1)O2
Compare I and II by numeric IC50 and name the larger one. Give the chosen item's label as your response.
I

###

biological target: Matrix metalloproteinase-9 (Homo sapiens, UniProt P14780); assay: Inhibition of human neutrophils gelatinase B after 30 mins by fluorescence plate reader
Sequence (P14780 whole entry): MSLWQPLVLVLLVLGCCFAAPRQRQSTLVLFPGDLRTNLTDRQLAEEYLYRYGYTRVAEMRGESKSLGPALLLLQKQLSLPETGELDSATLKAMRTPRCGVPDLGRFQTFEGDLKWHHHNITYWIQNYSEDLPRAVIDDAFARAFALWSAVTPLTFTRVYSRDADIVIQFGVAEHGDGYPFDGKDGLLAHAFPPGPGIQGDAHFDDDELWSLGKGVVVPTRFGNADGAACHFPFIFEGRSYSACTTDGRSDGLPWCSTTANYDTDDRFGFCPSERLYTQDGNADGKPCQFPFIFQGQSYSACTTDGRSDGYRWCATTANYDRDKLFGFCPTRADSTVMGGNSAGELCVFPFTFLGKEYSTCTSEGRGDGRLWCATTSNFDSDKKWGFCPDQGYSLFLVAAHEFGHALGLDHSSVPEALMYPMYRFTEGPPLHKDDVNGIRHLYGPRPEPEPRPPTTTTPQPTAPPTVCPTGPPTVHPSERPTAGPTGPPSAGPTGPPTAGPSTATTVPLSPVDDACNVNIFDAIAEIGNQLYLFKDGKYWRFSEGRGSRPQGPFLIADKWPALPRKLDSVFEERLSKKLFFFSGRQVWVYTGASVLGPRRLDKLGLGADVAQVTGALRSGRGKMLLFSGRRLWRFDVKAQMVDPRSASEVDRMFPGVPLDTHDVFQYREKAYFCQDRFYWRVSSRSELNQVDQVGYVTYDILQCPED
pIC50: −log10 of the molar value.
TEST READOUT: pIC50

As a guide, the following entries are already answered.
Oc1cc(O)c2c(c1)O[C@H](c1ccc(O)c(O)c1)[C@H](O)[C@H]2c1c(O)cc2c(c1O)C(c1c(O)cc(O)c3c1O[C@H](c1ccc(O)c(O)c1)[C@H](O)C3)[C@@H](O)[C@@H](c1ccc(O)c(O)c1)O2 (stereo not given in full)    5.64
[H]/N=C(\N/C(=N/[H])NCCCCCCNC(=N)NC(=N)Nc1ccc(Cl)cc1)Nc1ccc(Cl)cc1 [CHLORHEXIDINE]    5.12
Oc1cc(O)c2c(c1)O[C@H](c1ccc(O)c(O)c1)[C@H](O)[C@H]2c1c(O)cc(O)c2c1O[C@H](c1ccc(O)c(O)c1)[C@H](O)[C@H]2c1c(O)cc(O)c2c1O[C@H](c1ccc(O)c(O)c1)[C@H](O)[C@H]2c1c(O)cc(O)c2c1O[C@H](c1ccc(O)c(O)c1)[C@H](O)[C@H]2c1c(O)cc(O)c2c1O[C@H](c1ccc(O)c(O)c1)[C@H](O)C2    4.41

1. Oc1cc(O)c2c(c1)O[C@H](c1ccc(O)c(O)c1)[C@H](O)[C@H]2c1c(O)cc(O)c2c1O[C@H](c1ccc(O)c(O)c1)[C@H](O)[C@H]2c1c(O)cc(O)c2c1O[C@H](c1ccc(O)c(O)c1)[C@H](O)C2 [PROCYANIDIN C1]
2. Oc1cc(O)c2c(c1)O[C@H](c1ccc(O)c(O)c1)[C@H](O)[C@H]2c1c(O)cc(O)c2c1O[C@H](c1ccc(O)c(O)c1)[C@H](O)[C@H]2c1c(O)cc2c(c1O)C[C@@H](O)[C@@H](c1ccc(O)c(O)c1)O2
Of 1 and 2 , which shows the smaller pIC50 value? Give the chosen item's label as your response.
1
(1: 4.27, 2: 4.56)

###

assay: Inhibition of collagenase type 4 after 30 mins by fluorescence plate reader
pIC50: −log10 of the molar value.
TEST READOUT: pIC50

Oc1cc(O)c2c(c1)O[C@H](c1ccc(O)c(O)c1)[C@H](O)[C@H]2c1c(O)cc(O)c2c1O[C@H](c1ccc(O)c(O)c1)[C@H](O)[C@H]2c1c(O)cc(O)c2c1O[C@H](c1ccc(O)c(O)c1)[C@H](O)[C@H]2c1c(O)cc(O)c2c1O[C@H](c1ccc(O)c(O)c1)[C@H](O)[C@H]2c1c(O)cc(O)c2c1O[C@H](c1ccc(O)c(O)c1)[C@H](O)C2    4.67

a. Oc1cc(O)c2c(c1)O[C@H](c1ccc(O)c(O)c1)[C@H](O)[C@H]2c1c(O)cc2c(c1O)C(c1c(O)cc(O)c3c1O[C@H](c1ccc(O)c(O)c1)[C@H](O)C3)[C@@H](O)[C@@H](c1ccc(O)c(O)c1)O2 (stereo partly drawn)
b. CC(C)C[C@H](NP(=O)(O)O[C@@H]1O[C@@H](C)[C@H](O)[C@@H](O)[C@H]1O)C(=O)N[C@@H](Cc1c[nH]c2ccccc12)C(=O)O [PHOSPHORAMIDON]
Of a and b , which shows the smaller pIC50 value? Give the chosen item's label as your response.
b
(b: 5.12, a: 6.47)
